Test target: T1, human serum albumin (HSA), full length (human, UniProt P02768 25-609)
T1 construct: mature; Immobilized on CM5 chip (SPR) or coated on plates (ELISA)
T1 sequence (P02768 25-609): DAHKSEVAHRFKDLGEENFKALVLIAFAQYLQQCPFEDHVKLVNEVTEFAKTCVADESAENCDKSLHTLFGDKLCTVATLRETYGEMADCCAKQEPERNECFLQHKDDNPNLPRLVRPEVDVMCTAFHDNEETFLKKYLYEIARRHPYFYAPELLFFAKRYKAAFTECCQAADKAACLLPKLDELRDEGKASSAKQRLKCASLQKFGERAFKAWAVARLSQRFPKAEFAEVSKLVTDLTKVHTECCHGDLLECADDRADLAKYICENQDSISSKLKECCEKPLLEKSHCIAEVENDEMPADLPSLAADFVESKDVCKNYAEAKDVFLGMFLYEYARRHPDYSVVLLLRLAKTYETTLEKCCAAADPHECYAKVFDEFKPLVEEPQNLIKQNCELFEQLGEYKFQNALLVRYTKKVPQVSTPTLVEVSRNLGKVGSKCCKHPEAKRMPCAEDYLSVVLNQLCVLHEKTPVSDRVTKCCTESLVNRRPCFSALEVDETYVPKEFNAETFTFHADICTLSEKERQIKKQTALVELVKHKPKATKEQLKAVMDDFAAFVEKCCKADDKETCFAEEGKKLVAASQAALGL
Test summary: direct binding ELISA, coated HSA, anti-His-HRP
Design: unit not given here
Measurement type: HSA DB ELISA (OD450) Ymax obs

Binder	Measurement type	Quantitative readout
ADX_6727_C03 (Y35S) (designed binder, Full His6-tagged entry) MGVSDVPRDLEVVAATPTSLLISWDAPAVTVRYYRITYGREVQKSSDLGPLYIYQEFTVPGSKSTATISGLKPGVDYTITVYAVTGSGESPASSKPISINYRTEIDKPSQHHHHHH	HSA DB ELISA (OD450) Ymax obs	99

A: ADX_6727_C07 (R30A/K85S) (designed binder, Full His6-tagged entry) MGVSDVPRDLEVVAATPTSLLISWDAPAVTVRYYRITYGAEVQKYSDLGPLYIYQEFTVPGSKSTATISGLKPGVDYTITVYAVTGSGESPASSSPISINYRTEIDKPSQHHHHHH
B: ADX_6727_B05 (I43S/K85T) (designed binder, Full His6-tagged entry) MGVSDVPRDLEVVAATPTSLLISWDAPAVTVRYYRITYGREVQKYSDLGPLYSYQEFTVPGSKSTATISGLKPGVDYTITVYAVTGSGESPASSTPISINYRTEIDKPSQHHHHHH
For the pair A and B , which member has the lower HSA DB ELISA (OD450) Ymax obs number? Record your answer as the label of the chosen record.
B
(B: 60, A: 100)
